These measurements were taken from ChEMBL document CHEMBL1148770.

TARGET DESC: UniProt Q8BZP8
Sequence (Q8BZP8 whole entry): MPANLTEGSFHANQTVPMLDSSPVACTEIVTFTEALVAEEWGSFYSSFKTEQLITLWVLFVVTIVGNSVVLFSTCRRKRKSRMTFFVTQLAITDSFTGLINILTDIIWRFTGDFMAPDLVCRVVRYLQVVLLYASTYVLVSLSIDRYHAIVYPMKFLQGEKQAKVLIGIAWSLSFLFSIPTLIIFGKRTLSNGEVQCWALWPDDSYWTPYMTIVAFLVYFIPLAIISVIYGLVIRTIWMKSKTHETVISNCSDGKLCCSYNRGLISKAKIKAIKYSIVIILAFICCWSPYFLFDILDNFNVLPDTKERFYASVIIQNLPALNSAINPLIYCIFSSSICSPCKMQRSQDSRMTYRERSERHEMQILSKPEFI
TEST DESCRIPTION: Agonist activity at mouse recombinant NPSR expressed in HEK293 cells assessed as calcium mobilization
Square brackets hold non-standard residues; d marks the D form. Peptide text beside a SMILES is read from it. Aib = CC(C)(N)C(=O)O

MOLECULE	UNIT LABEL	EC50
CSCC[C@H](NC(=O)CNC(=O)[C@@H](NC(=O)CNC(=O)[C@@H](NC(=O)[C@@H](C)NC(=O)[C@H](CC(N)=O)NC(=O)[C@H](CCCNC(=N)N)NC(=O)[C@H](Cc1ccccc1)NC(=O)[C@@H](N)CO)C(C)C)[C@@H](C)O)C(=O)N[C@@H](CCCCN)C(=O)N[C@@H](CCCCN)C(=O)N[C@H](C(=O)N[C@@H](CO)C(=O)N[C@@H](Cc1ccccc1)C(=O)N[C@@H](CCC(N)=O)C(=O)N[C@@H](CCCNC(=N)N)C(=O)N[C@@H](C)C(=O)N[C@@H](CCCCN)C(=O)N[C@@H](CO)C(=O)O)[C@@H](C)O (H-SFRN[dA]VGTGMKKTSFQRAKS-OH)	nM	28.2
CSCC[C@H](NC(=O)C(C)(C)NC(=O)[C@@H](NC(=O)CNC(=O)[C@@H](NC(=O)CNC(=O)[C@H](CC(N)=O)NC(=O)[C@H](CCCNC(=N)N)NC(=O)[C@H](Cc1ccccc1)NC(=O)[C@@H](N)CO)C(C)C)[C@@H](C)O)C(=O)N[C@@H](CCCCN)C(=O)N[C@@H](CCCCN)C(=O)N[C@H](C(=O)N[C@@H](CO)C(=O)N[C@@H](Cc1ccccc1)C(=O)N[C@@H](CCC(N)=O)C(=O)N[C@@H](CCCNC(=N)N)C(=O)N[C@@H](C)C(=O)N[C@@H](CCCCN)C(=O)N[C@@H](CO)C(=O)O)[C@@H](C)O (H-SFRNGVGT[Aib]MKKTSFQRAKS-OH)	nM	10.2
CSCC[C@H](NC(=O)CNC(=O)[C@@H](NC(=O)CNC(=O)[C@@H](NC(=O)[C@H](C)NC(=O)[C@H](CC(N)=O)NC(=O)[C@H](CCCNC(=N)N)NC(=O)[C@H](Cc1ccccc1)NC(=O)[C@@H](N)CO)C(C)C)[C@@H](C)O)C(=O)N[C@@H](CCCCN)C(=O)N[C@@H](CCCCN)C(=O)N[C@H](C(=O)N[C@@H](CO)C(=O)N[C@@H](Cc1ccccc1)C(=O)N[C@@H](CCC(N)=O)C(=O)N[C@@H](CCCNC(=N)N)C(=O)N[C@@H](C)C(=O)N[C@@H](CCCCN)C(=O)N[C@@H](CO)C(=O)O)[C@@H](C)O (H-SFRNAVGTGMKKTSFQRAKS-OH)	nM	24.5
